pIC50: −log10 of the molar value.
Please find below pIC50 data on Coagulation factor VII (Homo sapiens) compiled from the literature.
Decide using pIC50: a value greater than or equal to 5 is 1, a smaller one is -1.

For orientation, consider the following solved cases.
CC(C)(C)CNC(=O)c1ccc(-c2ccc(OC3CCC3)nc2C(=O)Nc2ccc3c(N)nccc3c2)c(C(=O)O)c1 :: 1
Nc1cccc(-c2c(Cl)nc(NC3CCC3)c(=O)n2CC(=O)NCCc2cnc[nH]2)c1 :: -1
CC(C)[C@H](NC(=O)[C@H](Cc1ccc(O)cc1)NC(=O)N[C@H](C)c1ccc(Br)cc1)C(=O)N[C@@H](CCCN=C(N)N)C(=O)c1nccs1 :: -1
NC(=O)C[C@H](NC(=O)[C@@H](Cc1ccccc1)NS(=O)(=O)Cc1ccccc1)C(=O)N[C@@H](CCCN=C(N)N)C(=O)c1nccs1 :: 1
N=C(N)c1ccc(CNC(=O)c2cc(NS(=O)(=O)Cc3ccccc3)ccc2Sc2ccccc2)cc1 :: -1

Exam item: decide whether the reported pIC50 for `N=C(N)c1c(O)c(F)c(CNC(=O)Cn2c(-c3cccc(N)c3)c(Cl)nc(NC3CCC3)c2=O)c(F)c1F` is at least 5.
1

Would you say `Nc1cccc(-c2c(Cl)nc(NC3CCC3)c(=O)n2CC(=O)NCc2ccnc(N)n2)c1` shows pIC50 at minimum 5?
-1

Please tell me: is the molecule `COc1cccc(C(=O)O)c1OCCc1cc(-c2ccc3c(c2)[C@H](N)CO3)cc(C(C)C)c1` at or over 5 in terms of pIC50?
-1
